# method_description: total protein half-life in vivo (active degradation + dilution); higher = more stable protein
# condition_set: E. coli NCM3722 delta-clpP; growth: N-lim chemostat; doubling time 6 h
Classify as follows. Reported total protein half-life in vivo greater than or equal to 5 h: TRUE. Reported total protein half-life in vivo below: FALSE.

| sequence_content | cat |
| --- | --- |
| MRYIVALTGGIGSGKSTVANAFADLGINVIDADIIARQVVEPGAPALHAIADHFGANMIAADGTLQRRALRERIFANPEEKNWLNALLHPLIQQETQHQIQQATSPYVLWVVPLLVENSLYKKANRVLVVDVSPETQLKRTMQRDDVTREHVEQILAAQATREARLAVADDVIDNNGAPDAIASDVARLHAHYLQLASQFVSQEKP [P0A6I9] | FALSE |
| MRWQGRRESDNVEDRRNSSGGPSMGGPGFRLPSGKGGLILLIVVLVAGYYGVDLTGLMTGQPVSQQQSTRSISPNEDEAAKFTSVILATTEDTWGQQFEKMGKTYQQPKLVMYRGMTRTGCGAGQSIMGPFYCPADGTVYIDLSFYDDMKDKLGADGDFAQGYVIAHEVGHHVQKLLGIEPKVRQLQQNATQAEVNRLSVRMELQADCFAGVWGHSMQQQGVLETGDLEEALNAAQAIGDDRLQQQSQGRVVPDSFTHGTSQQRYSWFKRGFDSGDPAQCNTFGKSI | TRUE |
| MTLRKILALTCLLLPMMASAHQFETGQRVPPIGITDRGELVLDKDQFSYKTWNSAQLVGKVRVLQHIAGRTSAKEKNATLIEAIKSAKLPHDRYQTTTIVNTDDAIPGSGMFVRSSLESNKKLYPWSQFIVDSNGVALGAWQLDEESSAVVVLDKDGRVQWAKDGALTPEEVQQVMDLLQKLLK | FALSE |
| MDVRQSIHSAHAKTLDTQGLRNEFLVEKVFVADEYTMVYSHIDRIIVGGIMPITKTVSVGGEVGKQLGVSYFLERRELGVINIGGAGTITVDGQCYEIGHRDALYVGKGAKEVVFASIDTGTPAKFYYNCAPAHTTYPTKKVTPDEVSPVTLGDNLTSNRRTINKYFVPDVLETCQLSMGLTELAPGNLWNTMPCHTHERRMEVYFYFNMDDDACVFHMMGQPQETRHIVMHNEQAVISPSWSIHSGVGTKAYTFIWGMVGENQVFDDMDHVAVKDLR | FALSE |
| MRIVTAAVMASTLAVSSLSHAAEVGSGDNWHPGEELTQRSTQSHMFDGISLTEHQRQQMRDLMQQARHEQPPVNVSELETMHRLVTAENFDENAVRAQAEKMANEQIARQVEMAKVRNQMYRLLTPEQQAVLNEKHQQRMEQLRDVTQWQKSSSLKLLSSSNSRSQ [P0AE85] | FALSE |
| MNIKGKALLAGCIALAFSNMALAEDIKVAVVGAMSGPVAQYGDQEFTGAEQAVADINAKGGIKGNKLQIVKYDDACDPKQAVAVANKVVNDGIKYVIGHLCSSSTQPASDIYEDEGILMITPAATAPELTARGYQLILRTTGLDSDQGPTAAKYILEKVKPQRIAIVHDKQQYGEGLARAVQDGLKKGNANVVFFDGITAGEKDFSTLVARLKKENIDFVYYGGYHPEMGQILRQARAAGLKTQFMGPEGVANVSLSNIAGESAEGLLVTKPKNYDQVPANKPIVDAIKAKKQDPSGAFVWTTYAALQSLQAGLNQSDDPAEIAKYLKANSVDTVMGPLTWDEKGDLKGFEFGVFDWHANGTATDAK [P0AD96] | TRUE |
| MTMKKLLIIILPVLLSGCSAFNQLVERMQTDTLEYQCDEKPLTVKLNNPRQEVSFVYDNQLLHLKQGISASGARYTDGIYVFWSKGDEATVYKRDRIVLNNCQLQNPQR | TRUE |
| MPLHNLTRFPRLEFIGAPTPLEYLPRFSDYLGREIFIKRDDVTPMAMGGNKLRKLEFLAADALREGADTLITAGAIQSNHVRQTAAVAAKLGLHCVALLENPIGTTAENYLTNGNRLLLDLFNTQIEMCDALTDPNAQLEELATRVEAQGFRPYVIPVGGSNALGALGYVESALEIAQQCEGAVNISSVVVASGSAGTHAGLAVGLEHLMPESELIGVTVSRSVADQLPKVVNLQQAIAKELELTASAEILLWDDYFAPGYGVPNDEGMEAVKLLARLEGILLDPVYTGKAMAGLIDGISQKRFKDEGPILFIHTGGAPALFAYHPHV | TRUE |
| MSTIEERVKKIIGEQLGVKQEEVTNNASFVEDLGADSLDTVELVMALEEEFDTEIPDEEAEKITTVQAAIDYINGHQA [P0A6A8] | TRUE |
| MKQTQRHNGIIELVKQQGYVSTEELVEHFSVSPQTIRRDLNELAEQNLILRHHGGAALPSSSVNTPWHDRKATQTEEKERIARKVAEQIPNGSTLFIDIGTTPEAVAHALLNHSNLRIVTNNLNVANTLMVKEDFRIILAGGELRSRDGGIIGEATLDFISQFRLDFGILGISGIDSDGSLLEFDYHEVRTKRAIIENSRHVMLVVDHSKFGRNAMVNMGSISMVDAVYTDAPPPVSVMQVLTDHHIQLELC [P0ACL0] | TRUE |

Asked: Is it the case that `MADVHDKATRSKNMRAIATRDTAIEKRLASLLTGQGLAFRVQDASLPGRPDFVVDEYRCVIFTHGCFWHHHHCYLFKVPATRTEFWLEKIGKNVERDRRDISRLQELGWRVLIVWECALRGREKLTDEALTERLEEWICGEGASAQIDTQGIHLLA` has total protein half-life in vivo reaching or exceeding 5 h?
Given back: FALSE

Asked: Given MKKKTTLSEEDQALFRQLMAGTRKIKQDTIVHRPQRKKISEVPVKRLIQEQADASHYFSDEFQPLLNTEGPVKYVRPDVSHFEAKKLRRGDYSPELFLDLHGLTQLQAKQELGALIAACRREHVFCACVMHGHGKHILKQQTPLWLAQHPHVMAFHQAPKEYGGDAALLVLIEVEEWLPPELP [P0A8B2] , state whether its total protein half-life in vivo is at least 5 h.
Given back: FALSE
